These data points were gathered from ChEMBL document CHEMBL3393005.

We begin with a simple list: items and their reported Ratio IC50.
Species: Homo sapiens
Experiment: Selectivity index, ratio of IC50 for human recombinant MAO-B to IC50 for human recombinant MAO-A
Just the number.

// solved cases for Ratio IC50 follow
Cc1ccc(C2=NN(C(=O)Cn3ccnc3)C(c3ccccc3O)C2)cc1 (stereo unspecified) ... 0.69
COc1ccc(C2=NN(C(=O)CN3CCOCC3)C(c3cc(Cl)ccc3O)C2)cc1 (stereo unspecified) ... 3.1
COc1ccc(C2=NN(C(=O)CN3CCCCC3)C(c3cc(Cl)ccc3O)C2)cc1 (stereo unspecified) ... 6.2
O=C(CBr)N1N=C(c2ccc(F)cc2)CC1c1ccccc1O (stereo unspecified) ... 8.8
CC1=NN(C(=O)CN2CCN(CCO)CC2)C(c2cc(Br)cc(Br)c2O)C1 (stereo unspecified) ... 3.4
CC1=NN(C(=O)Cn2ccnc2)C(c2cc(Cl)ccc2O)C1 (stereo unspecified) ... 2
CC1=NN(C(=O)CN2CCC(=O)CC2)C(c2cc(Br)cc(Br)c2O)C1 (stereo unspecified) ... 7
O=C(CN1CCCCC1)N1N=C(c2ccc(F)cc2)CC1c1ccccc1O (stereo unspecified) ... 5.9

Need Ratio IC50, item CC1=NN(C(=O)CN2CCOCC2)C(c2cc(Cl)ccc2O)C1 (stereo unspecified)
3.2

Would you kindly repeat that for O=C(CN1CCOCC1)N1N=C(c2ccc(F)cc2)CC1c1ccccc1O (stereo unspecified) ?
3.6

Would you kindly repeat that for CC1=NN(C(=O)CN2CCNCC2)C(c2cc(Br)cc(Br)c2O)C1 (stereo unspecified) ?
30
